- protocol summary: Clearance in Sprague-Dawley rat at 1 mg/kg, iv and 10 mg/kg, po
- Type: ADME, organism-based
- condition context: in vivo
Listed molecules paired with reported clearance

{"chemical structure": "CN(C)c1cc(NC(=O)CNC(C)(C)C)c(O)c2c1C[C@H]1C[C@H]3[C@H](N(C)C)C(O)=C(C(N)=O)C(=O)[C@@]3(O)C(O)=C1C2=O", "clearance": "0.929 L/h/kg"}
{"chemical structure": "CN(C)CC(C)(C)CNc1nc(Cl)c2c(c1O)C(=O)C1=C(O)[C@]3(O)C(=O)C(C(N)=O)=C(O)[C@@H](N(C)C)[C@@H]3C[C@@H]1C2.Cl", "clearance": "0.202 L/h/kg"}
{"chemical structure": "CN(C)c1ncc(O)c2c1C[C@H]1C[C@H]3[C@H](N(C)C)C(O)=C(C(N)=O)C(=O)[C@@]3(O)C(O)=C1C2=O.Cl.Cl", "clearance": "0.919 L/h/kg"}

----------
- Test system: Streptococcus pneumoniae
- protocol summary: Antibacterial activity against Streptococcus pneumoniae ATCC 49619 by CLSI M07-A8 method
- Format: functional
Listed molecules paired with reported MIC

{"chemical structure": "CN(C)[C@@H]1C(O)=C(C(N)=O)C(=O)[C@@]2(O)C(O)=C3C(=O)c4c(O)c(-c5ccccc5)nc(Cl)c4C[C@H]3C[C@@H]12.Cl", "MIC [µg/mL]": 8}
{"chemical structure": "CC(C)Nc1nc(Cl)c2c(c1O)C(=O)C1=C(O)[C@]3(O)C(=O)C(C(N)=O)=C(O)[C@@H](N(C)C)[C@@H]3C[C@@H]1C2.Cl.Cl.Cl", "MIC [µg/mL]": 2}
{"chemical structure": "CCNc1nc(Cl)c2c(c1O)C(=O)C1=C(O)[C@]3(O)C(=O)C(C(N)=O)=C(O)[C@@H](N(C)C)[C@@H]3C[C@@H]1C2.Cl.Cl.Cl", "MIC [µg/mL]": 0.031}

----------
- Tested on: Klebsiella pneumoniae
- protocol summary: Antibacterial activity against Klebsiella pneumoniae ATCC 13883 by CLSI M07-A8 method
- Type: functional
Listed compounds paired with reported MIC

{"chemical structure": "CN(C)c1cc(NC(=O)CNC(C)(C)C)c(O)c2c1C[C@H]1C[C@H]3[C@H](N(C)C)C(O)=C(C(N)=O)C(=O)[C@@]3(O)C(O)=C1C2=O", "tested on": "Klebsiella pneumoniae", "value modifier": "=", "MIC (µg/mL)": 0.125}
{"chemical structure": "CN(C)[C@@H]1C(O)=C(C(N)=O)C(=O)[C@@]2(O)C(O)=C3C(=O)c4c(cnc(-c5ccccc5)c4O)C[C@H]3C[C@@H]12.Cl.Cl", "tested on": "Klebsiella pneumoniae", "value modifier": "=", "MIC (µg/mL)": 32}
{"chemical structure": "COCCNc1nc(Cl)c2c(c1O)C(=O)C1=C(O)[C@]3(O)C(=O)C(C(N)=O)=C(O)[C@@H](N(C)C)[C@@H]3C[C@@H]1C2.Cl.Cl.Cl", "tested on": "Klebsiella pneumoniae", "value modifier": "=", "MIC (µg/mL)": 4}
{"chemical structure": "CN(C)[C@@H]1C(O)=C(C(N)=O)C(=O)[C@@]2(O)C(O)=C3C(=O)c4c(O)c(N)nc(F)c4C[C@H]3C[C@@H]12.Cl.Cl", "tested on": "Klebsiella pneumoniae", "value modifier": "=", "MIC (µg/mL)": 1}
{"chemical structure": "COc1ncc(O)c2c1C[C@H]1C[C@H]3[C@H](N(C)C)C(O)=C(C(N)=O)C(=O)[C@@]3(O)C(O)=C1C2=O.Cl.Cl", "tested on": "Klebsiella pneumoniae", "value modifier": "=", "MIC (µg/mL)": 1}
{"chemical structure": "CN(C)CCNc1nc(Cl)c2c(c1O)C(=O)C1=C(O)[C@]3(O)C(=O)C(C(N)=O)=C(O)[C@@H](N(C)C)[C@@H]3C[C@@H]1C2.Cl", "tested on": "Klebsiella pneumoniae", "value modifier": "=", "MIC (µg/mL)": 8}
{"chemical structure": "Cc1ncc(O)c2c1C[C@H]1C[C@H]3[C@H](N(C)C)C(O)=C(C(N)=O)C(=O)[C@@]3(O)C(O)=C1C2=O.Cl.Cl", "tested on": "Klebsiella pneumoniae", "value modifier": "=", "MIC (µg/mL)": 1}
{"chemical structure": "CC(C)CNc1nc(Cl)c2c(c1O)C(=O)C1=C(O)[C@]3(O)C(=O)C(C(N)=O)=C(O)[C@@H](N(C)C)[C@@H]3C[C@@H]1C2.Cl.Cl.Cl", "tested on": "Klebsiella pneumoniae", "value modifier": ">", "MIC (µg/mL)": 32}
{"chemical structure": "CN(C)[C@@H]1C(O)=C(C(N)=O)C(=O)[C@@]2(O)C(O)=C3C(=O)c4c(O)c(NC(=O)CNC(C)(C)C)nc(Cl)c4C[C@H]3C[C@@H]12.Cl.Cl.Cl", "tested on": "Klebsiella pneumoniae", "value modifier": "=", "MIC (µg/mL)": 8}
{"chemical structure": "CN(C)c1cc(CNCC(C)(C)C)c(O)c2c1C[C@H]1C[C@H]3[C@H](N(C)C)C(O)=C(C(N)=O)C(=O)[C@@]3(O)C(O)=C1C2=O", "tested on": "Klebsiella pneumoniae", "value modifier": "=", "MIC (µg/mL)": 2}
{"chemical structure": "CN(C)[C@@H]1C(O)=C(C(N)=O)C(=O)[C@@]2(O)C(O)=C3C(=O)c4c(O)c(NC(=O)CNC(C)(C)C)nc(F)c4C[C@H]3C[C@@H]12.Cl.Cl", "tested on": "Klebsiella pneumoniae", "value modifier": "=", "MIC (µg/mL)": 16}
{"chemical structure": "CCCNc1nc(N(C)C)c2c(c1O)C(=O)C1=C(O)[C@]3(O)C(=O)C(C(N)=O)=C(O)[C@@H](N(C)C)[C@@H]3C[C@@H]1C2.Cl.Cl", "tested on": "Klebsiella pneumoniae", "value modifier": ">", "MIC (µg/mL)": 32}
{"chemical structure": "CN(C)CC(C)(C)CNc1nc(Cl)c2c(c1O)C(=O)C1=C(O)[C@]3(O)C(=O)C(C(N)=O)=C(O)[C@@H](N(C)C)[C@@H]3C[C@@H]1C2.Cl", "tested on": "Klebsiella pneumoniae", "value modifier": "=", "MIC (µg/mL)": 2}
{"chemical structure": "CN(C)CCCNc1nc(Cl)c2c(c1O)C(=O)C1=C(O)[C@]3(O)C(=O)C(C(N)=O)=C(O)[C@@H](N(C)C)[C@@H]3C[C@@H]1C2.Cl", "tested on": "Klebsiella pneumoniae", "value modifier": "=", "MIC (µg/mL)": 16}

----------
- protocol summary: in vivo
- condition context: Sprague-Dawley, rat, iv, 1 mg/kg
- Description: Volume of distribution in Sprague-Dawley rat at 1 mg/kg, iv and 10 mg/kg, po

{"chemical structure": "CN(C)CC(C)(C)CNc1nc(Cl)c2c(c1O)C(=O)C1=C(O)[C@]3(O)C(=O)C(C(N)=O)=C(O)[C@@H](N(C)C)[C@@H]3C[C@@H]1C2.Cl", "Vd [L/kg]": 1.26}
{"chemical structure": "CN(C)c1cc(NC(=O)CNC(C)(C)C)c(O)c2c1C[C@H]1C[C@H]3[C@H](N(C)C)C(O)=C(C(N)=O)C(=O)[C@@]3(O)C(O)=C1C2=O", "Vd [L/kg]": 6.12}
{"chemical structure": "CN(C)c1ncc(O)c2c1C[C@H]1C[C@H]3[C@H](N(C)C)C(O)=C(C(N)=O)C(=O)[C@@]3(O)C(O)=C1C2=O.Cl.Cl", "Vd [L/kg]": 4.18}

----------
- System: Streptococcus pneumoniae
- protocol summary: Antibacterial activity against tetracycline-resistant Streptococcus pneumoniae isolate 160 harboring tet(M) gene by CLSI M07-A8 method
- Format: functional
Listed compounds paired with reported MIC
endpoint label: MIC (µg/mL)

{"compound": "CN(C)[C@@H]1C(O)=C(C(N)=O)C(=O)[C@@]2(O)C(O)=C3C(=O)c4c(O)c(NC(=O)CNC(C)(C)C)nc(F)c4C[C@H]3C[C@@H]12.Cl.Cl", "tested on": "Streptococcus pneumoniae", "endpoint label": "MIC", "result unit": "µg/mL", "value": 8}
{"compound": "CN(C)c1ncc(O)c2c1C[C@H]1C[C@H]3[C@H](N(C)C)C(O)=C(C(N)=O)C(=O)[C@@]3(O)C(O)=C1C2=O.Cl.Cl", "tested on": "Streptococcus pneumoniae", "endpoint label": "MIC", "result unit": "µg/mL", "value": 8}
{"compound": "CN(C)c1ccc(O)c2c1C[C@H]1C[C@H]3[C@H](N(C)C)C(O)=C(C(N)=O)C(=O)[C@@]3(O)C(O)=C1C2=O [MINOCYCLINE]", "tested on": "Streptococcus pneumoniae", "endpoint label": "MIC", "result unit": "µg/mL", "value": 8}
{"compound": "CN(C)CC(C)(C)CNc1nc(Cl)c2c(c1O)C(=O)C1=C(O)[C@]3(O)C(=O)C(C(N)=O)=C(O)[C@@H](N(C)C)[C@@H]3C[C@@H]1C2.Cl", "tested on": "Streptococcus pneumoniae", "endpoint label": "MIC", "result unit": "µg/mL", "value": 0.125}
{"compound": "CN(C)[C@@H]1C(O)=C(C(N)=O)C(=O)[C@@]2(O)C(O)=C3C(=O)c4c(O)cncc4C[C@H]3C[C@@H]12.Cl.Cl", "tested on": "Streptococcus pneumoniae", "endpoint label": "MIC", "result unit": "µg/mL", "value": 32}
{"compound": "CN(C)[C@@H]1C(O)=C(C(N)=O)C(=O)[C@@]2(O)C(O)=C3C(=O)c4c(O)c(N)nc(F)c4C[C@H]3C[C@@H]12.Cl.Cl", "tested on": "Streptococcus pneumoniae", "endpoint label": "MIC", "result unit": "µg/mL", "value": 2}
